experiment: Hepatocyte clearance assay, rat; type: in vitro ADME; details: cryopreserved primary rat hepatocytes, average value from two experiments, read-out: Rat heps Clint
quantity-name: hepatocyte CLint at 1 µM (µL/min/1e6 cells)

- compound: "Cc1c(F)cccc1NC(=O)/C=C/c1ccc2cn[nH]c2c1 [Comparative Example 1, reference compound]"
  recorded-result: 89
- compound: "Cc1c(F)cccc1NC(=O)/C=C/c1ccc2c(c1)NC(=O)C2C (stereo not shown)"
  recorded-result: 46
- compound: "CO[C@H]1Cc2ccccc2[C@@H]1NC(=O)/C=C/c1ccc2c(C3CC3)n[nH]c2c1"
  recorded-result: 70.1
- compound: "Cc1cccc(C)c1NC(=O)/C=C/c1ccc2c(c1)NC(=O)C2"
  recorded-result: 9.1

----------
Test: Hepatocyte clearance assay, rat
Format: in vitro ADME
Settings: cryopreserved primary rat hepatocytes, average value from two experiments, read-out: Rat heps Clint
Experimental: In vitro clearance studies were performed in primary rat and human hepatocytes (BiolVT). Vials of cryopreserved rat or human hepatocytes were thawed in a 37° C. water bath for 2 min. […] Peak areas were determined from extracted ion chromatograms. The slope value, k, was determined by linear regression of the natural logarithm of the remaining percentage of the parent drug vs. incubation time curve. The in vitro half-life (in vitro t½) was determined from the slope value: in vitro t½=0.693/k. […]
quantity-name: hepatocyte CLint at 1 µM (µL/min/1e6 cells)

- structure-notation: "Cc1c(F)cncc1NC(=O)/C=C/c1ccc2c(C)n[nH]c2c1"
  unit-string: "µL/min/1e6 cells"
  recorded-result: 307
- structure-notation: "Cc1cccc(C)c1NC(=O)/C=C/c1ccc2c(c1)[nH]c(=O)n2C"
  unit-string: "µL/min/1e6 cells"
  recorded-result: 16.1
- structure-notation: "Cc1n[nH]c2cc(/C=C/C(=O)N[C@H]3c4ccccc4C[C@@H]3OCC3CC3)ccc12"
  unit-string: "µL/min/1e6 cells"
  recorded-result: 73.3
- structure-notation: "CCn1c(=O)[nH]c2cc(/C=C/C(=O)Nc3cccc(F)c3C)ccc21"
  unit-string: "µL/min/1e6 cells"
  recorded-result: 26.1
- structure-notation: "Cc1c(F)cccc1NC(=O)/C=C/c1ccc2c(c1)[nH]c(=O)n2C"
  unit-string: "µL/min/1e6 cells"
  recorded-result: 27

----------
test: PBS and FaSSIF solubility; assay type: physicochemical; conditions: aqueous buffer, kinetic from dmso stock; PBS pH 7.4, 2 hr at 25° C.; read-out: Solubility PBS (pH 7.4)
Below, each entry is listed with its recorded solubility at 2 h.

- molecule: "CC(C)c1ccc(Cl)cc1NC(=O)/C=C/c1ccc2oc(=O)[nH]c2c1 [Example 15]"
  unit-string: "µM"
  solubility at 2 h: 0.03
- molecule: "Cc1c(Cl)cccc1NC(=O)/C=C/c1ccc2oc(=O)[nH]c2c1 [Example 9]"
  unit-string: "µM"
  solubility at 2 h: 0.6
- molecule: "Cc1cccc(C)c1NC(=O)/C=C/c1ccc2c(c1)[nH]c(=O)n2C [Example 29]"
  unit-string: "µM"
  solubility at 2 h: 33.5
- molecule: "Cc1cccc(C)c1NC(=O)/C=C/c1ccc2c(c1)NC(=O)C2 [Example 19]"
  unit-string: "µM"
  solubility at 2 h: 134
- molecule: "Cc1c(F)cccc1NC(=O)/C=C/c1ccc2cn[nH]c2c1 [Comparative Example 1, reference compound]"
  unit-string: "µM"
  solubility at 2 h: 0.9
- molecule: "Cc1c(F)cccc1NC(=O)/C(F)=C/c1ccc2c(c1)NC(=O)C2 [Example 47]"
  unit-string: "µM"
  solubility at 2 h: 0.5
- molecule: "Cc1cc(F)c(F)c(C)c1NC(=O)/C=C/c1ccc2c(c1)NC(=O)C2 [Example 36]"
  unit-string: "µM"
  solubility at 2 h: 65.9
- molecule: "Cc1ccc(F)c(C)c1NC(=O)/C=C/c1ccc2c(c1)[nH]c(=O)n2C [Example 30]"
  unit-string: "µM"
  solubility at 2 h: 5.73
- molecule: "CC(C)c1ccccc1NC(=O)/C=C/c1ccc2oc(=O)[nH]c2c1 [Example 13]"
  unit-string: "µM"
  solubility at 2 h: 5.3
